Data origin: ChEMBL document CHEMBL2010791

# Test Method Notes: Elimination half life in Sprague-Dawley rat at 10 mg/kg, po
# Type: ADME, organism-based
# Set-up: dose 10 mg/kg, route oral
# Run Parameters: in vivo, read-out: beta t1/2 (converted)

Compound Smiles: COc1ccc(-c2nsc(NC(=O)[C@@H]3C[C@H]3C)c2C)cc1
Units Label: h
half-life: 1.24

---

# Test Method Notes: Volume of distribution in Sprague-Dawley rat at 3 mg/kg, iv and at 10 mg/kg, po
# Assay type: ADME, organism-based
# Run Parameters: in vivo
Observable: Vd (L/kg)

Compound Smiles: COc1ccc(-c2nsc(NC(=O)[C@@H]3C[C@H]3C)c2C)cc1
Assay Result: 1.27

---

# Test Method Notes: AUC (0 to 24 hrs) in Sprague-Dawley rat at 10 mg/kg, po
# Type: ADME, organism-based
# Parameters: time < 24 hr, dose 10 mg/kg, route oral
# Run Parameters: plasma
Observable: AUC(0-t) at 24 h (ng·h/mL)

Compound Smiles: COc1ccc(-c2nsc(NC(=O)[C@@H]3C[C@H]3C)c2C)cc1
Observable: AUC(0-t) at 24 h
Units Label: ng·h/mL
Assay Result: 3240

---

# Test Method Notes: Clearance in Sprague-Dawley rat at 3 mg/kg, iv and at 10 mg/kg, po
# Type: ADME, organism-based
# Run Parameters: in vivo

Compound Smiles: COc1ccc(-c2nsc(NC(=O)[C@@H]3C[C@H]3C)c2C)cc1
Units Label: mL/min/kg
clearance: 35.9

---

# Test Method Notes: Oral bioavailability in Sprague-Dawley rat at 10 mg/kg
# Format: ADME, organism-based
# Run Parameters: in vivo
Observable: bioavailability (%)

Compound Smiles: COc1ccc(-c2nsc(NC(=O)[C@@H]3C[C@H]3C)c2C)cc1
Units Label: %
Assay Result: 55.5

---

# Test Method Notes: Tmax in Sprague-Dawley rat at 10 mg/kg, po
# Assay type: ADME, organism-based
# Parameters: dose 10 mg/kg, route oral
# Run Parameters: in vivo

Compound Smiles: COc1ccc(-c2nsc(NC(=O)[C@@H]3C[C@H]3C)c2C)cc1
Tmax / h: 1

---

# Test Method Notes: Cmax in Sprague-Dawley rat at 10 mg/kg, po
# Type: ADME, organism-based
# Design: dose 10 mg/kg, route oral
# Run Parameters: in vivo

Compound Smiles: COc1ccc(-c2nsc(NC(=O)[C@@H]3C[C@H]3C)c2C)cc1
Units Label: ng/mL
Cmax: 1050

---

// pIC50 lookup, one value per entry
# Measurement Target: UniProt:Q13255
# Sequence (Q13255 whole entry): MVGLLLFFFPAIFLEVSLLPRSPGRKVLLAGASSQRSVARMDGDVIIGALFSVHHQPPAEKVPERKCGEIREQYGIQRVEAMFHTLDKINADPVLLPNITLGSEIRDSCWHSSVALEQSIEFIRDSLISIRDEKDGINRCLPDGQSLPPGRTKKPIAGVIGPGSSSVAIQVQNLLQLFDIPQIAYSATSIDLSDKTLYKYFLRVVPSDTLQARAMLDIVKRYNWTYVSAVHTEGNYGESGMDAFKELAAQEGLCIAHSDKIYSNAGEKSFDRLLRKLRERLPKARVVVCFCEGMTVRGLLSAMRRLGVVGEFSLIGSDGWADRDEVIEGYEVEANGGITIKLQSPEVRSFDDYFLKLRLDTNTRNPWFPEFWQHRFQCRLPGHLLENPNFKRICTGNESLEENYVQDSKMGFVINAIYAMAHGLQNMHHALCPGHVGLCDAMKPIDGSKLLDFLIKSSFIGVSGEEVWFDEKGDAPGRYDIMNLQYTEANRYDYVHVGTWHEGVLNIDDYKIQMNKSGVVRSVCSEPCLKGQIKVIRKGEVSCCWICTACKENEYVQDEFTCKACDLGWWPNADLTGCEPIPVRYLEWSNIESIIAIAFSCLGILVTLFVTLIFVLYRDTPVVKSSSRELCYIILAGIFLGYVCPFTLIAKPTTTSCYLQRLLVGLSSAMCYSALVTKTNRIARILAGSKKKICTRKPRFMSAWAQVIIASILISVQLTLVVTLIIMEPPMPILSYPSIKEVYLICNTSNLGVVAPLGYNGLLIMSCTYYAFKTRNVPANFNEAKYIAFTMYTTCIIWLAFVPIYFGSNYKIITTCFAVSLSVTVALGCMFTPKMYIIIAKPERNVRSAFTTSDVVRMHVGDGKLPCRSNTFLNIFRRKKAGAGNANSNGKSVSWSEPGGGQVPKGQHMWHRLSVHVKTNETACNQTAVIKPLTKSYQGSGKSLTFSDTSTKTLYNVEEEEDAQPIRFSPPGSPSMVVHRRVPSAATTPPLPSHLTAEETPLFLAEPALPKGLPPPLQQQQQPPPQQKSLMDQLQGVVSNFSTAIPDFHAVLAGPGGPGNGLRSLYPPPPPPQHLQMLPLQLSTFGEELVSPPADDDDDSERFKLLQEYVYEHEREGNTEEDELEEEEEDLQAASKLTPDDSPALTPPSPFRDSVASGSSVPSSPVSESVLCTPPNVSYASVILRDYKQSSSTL
# Test Method Notes: Allosteric antagonist activity at human recombinant mGluR1 expressed in AV12 cells assessed as intracellular calcium concentration using Fluo-3 dye by FLIPR assay
pIC50: −log10 of the molar value.
Observable: pIC50

Compound: Cc1c(-c2ccc(Br)cc2)nsc1NC(=O)[C@@H]1C[C@H]1C
Observable: pIC50
Assay Result: 8.15
//
Compound: CCOc1ccc(-c2nsc(NC(=O)[C@@H]3C[C@H]3C)c2C)cc1
Observable: pIC50
Assay Result: 7.04
//
Compound: COc1ccc(-c2nsc(NC(=O)[C@@H]3C[C@H]3C)c2C)cc1 (racemic)
Observable: pIC50
Assay Result: 7.49
//
Compound: Cc1c(-c2ccccc2)nsc1NC(=O)[C@@H]1C[C@H]1C
Observable: pIC50
Assay Result: 7.19
//
Compound: Cc1c(-c2ccc(C(C)(F)F)cc2)nsc1NC(=O)[C@@H]1C[C@H]1C
Observable: pIC50
Assay Result: 7.17
//
Compound: Cc1c(-c2ccc(F)cc2)nsc1NC(=O)[C@@H]1C[C@H]1C
Observable: pIC50
Assay Result: 7.00
